biological target: T1, human SIRPα1 expressed on cells (human, UniProt P78324 31-504); assay: flow cytometry, ExpiCHO-S cells
T1 construct: whole, on cells; also called ExpiCHO-S (huSIRPα1); CHO cells expressing huSIRPα1
T1 sequence (P78324 other isoform, or with tags, fused parts or gaps limits assumed): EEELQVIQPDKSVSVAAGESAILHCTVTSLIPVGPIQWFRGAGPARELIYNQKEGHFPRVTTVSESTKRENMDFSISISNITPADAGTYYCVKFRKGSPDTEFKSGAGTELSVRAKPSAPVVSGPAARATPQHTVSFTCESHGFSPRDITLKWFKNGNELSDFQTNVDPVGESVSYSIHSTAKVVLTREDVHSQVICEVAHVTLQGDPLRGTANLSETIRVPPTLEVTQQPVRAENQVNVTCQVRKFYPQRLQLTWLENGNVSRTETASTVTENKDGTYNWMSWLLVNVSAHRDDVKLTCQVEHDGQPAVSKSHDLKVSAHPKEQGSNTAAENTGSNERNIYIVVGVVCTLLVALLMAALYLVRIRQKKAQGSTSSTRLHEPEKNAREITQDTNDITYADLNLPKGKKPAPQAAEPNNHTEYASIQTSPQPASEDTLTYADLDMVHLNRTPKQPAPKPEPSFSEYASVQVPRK
measured endpoint: EC50 (µg/mL)
Write it as a number; the unit µg/mL goes unstated.

Incoming: Give the reported EC50 for this binder. anti-SIRPα antibody 11 humanized (antibody, human IgG1, kappa, L234A L235A, V domains shown, Humanized, human IgG1 LALA / kappa) VH: EVKVEESGGGLVQPGGSLRLSCAASGFSLSSYVMGWVRQAPGKGLEWVSIISSSGSPYYASWVNGRFTISKTSTTMDLQMNSLRAEDTAVYYCARVGPLGVDYFNIWGQGTTVTVSS VL: DIQMTQSPSSLSASVGDRVTITCQAGQSINSYLAWYQQKPGKVPKLLIYYASTLESGVPSRFSGSGSGTDFTLTISSLQPEDVATYYCQSWHYISRSYAFGQGTKVEIKR
Outgoing: 1.05
